assayed_target: Calcitonin gene-related peptide type 1 receptor (Homo sapiens, UniProt O60894+Q16602)
Sequence (Q16602 whole entry, one chain of several): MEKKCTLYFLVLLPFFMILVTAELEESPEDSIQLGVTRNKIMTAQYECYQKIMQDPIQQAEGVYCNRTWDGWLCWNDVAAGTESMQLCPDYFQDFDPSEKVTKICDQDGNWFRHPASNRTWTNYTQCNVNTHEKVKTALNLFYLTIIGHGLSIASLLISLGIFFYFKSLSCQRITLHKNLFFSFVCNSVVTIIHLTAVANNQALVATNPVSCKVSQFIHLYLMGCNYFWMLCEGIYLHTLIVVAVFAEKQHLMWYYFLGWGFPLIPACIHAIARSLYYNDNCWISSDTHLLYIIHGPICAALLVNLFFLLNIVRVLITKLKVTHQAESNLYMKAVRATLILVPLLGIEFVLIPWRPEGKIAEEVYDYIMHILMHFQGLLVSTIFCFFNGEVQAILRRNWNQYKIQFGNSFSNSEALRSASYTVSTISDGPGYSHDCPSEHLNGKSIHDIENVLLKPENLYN
test_protocol: biochemical
Description: Displacement of [125I]hCGRP from human CGRP receptor expressed in HEK293 cells coexpressing RAMP1
So I've got a bunch of molecules here, and I need their Ki values.
Lab book: enter the figure in nM, no units written.

May I ask what Ki has been recorded for `O=C(CN1C(=O)C2(CCOCC2)c2ccccc21)Nc1ccc2c(c1)C[C@]1(C2)C(=O)Nc2ncccc21` ?
1.7

Follow-up entry: `CN1C(=O)NC(=O)[C@]12Cc1ccc(NC(=O)CN3C(=O)C4(CCOCC4)c4ccccc43)cc1C2`
35

Follow-up entry: O=C(Cn1c(=O)n(-c2ccccn2)c2ccccc21)Nc1ccc2c(c1)CC1(C2)C(=O)Nc2ncccc21 (stereo not drawn)
3.7

Follow-up entry: `O=C(Cn1c(=O)n(-c2ccccn2)c2ccccc21)Nc1ccc2c(c1)C[C@@]1(C2)N=C(c2cccnc2)NC1=O`
130

Follow-up entry: `O=C(Cn1c(=O)n2c3c(cccc31)NC(=O)C2)Nc1ccc2c(c1)C[C@]1(C2)C(=O)Nc2ncccc21`
0.04

Follow-up entry: `Cc1cc(C)c2c(c1)n(CC(=O)Nc1ccc3c(c1)C[C@]1(C3)C(=O)Nc3ncccc31)c(=O)n2CC(=O)N(C)C`
0.21

Follow-up entry: `CN1C(=O)NC(=O)[C@]12Cc1ccc(NC(=O)Cn3c(=O)n(C4CCSCC4)c4ccccc43)cc1C2`
13

Follow-up entry: `O=C(Cn1c(=O)n(-c2ccccn2)c2ccccc21)Nc1ccc2c(c1)C[C@@]1(C2)NC(=O)NC1=O`
230

* * *

assayed_target: Calcitonin gene-related peptide type 1 receptor (Homo sapiens, UniProt O60894+Q16602)
test_protocol: biochemical
pKi: −log10 of the molar value.
Where pKi equals or exceeds 7, the correct label is satisfied; where it does not, the label is not satisfied.

Record `O=C(Cn1c(=O)n(-c2ccccn2)c2ccccc21)Nc1ccc2c(c1)C[C@]1(C2)C(=O)Nc2ncccc21` ; criterion: pKi no lower than 7. Met?
satisfied

Follow-up entry: `O=C1CN(C2CCN(C(=O)N[C@@H]3N=C(c4ccccc4)c4ccccc4N(CC(F)(F)F)C3=O)CC2)C(=O)N1`
not satisfied

Follow-up entry: O=C(Cn1c(=O)n(-c2ccccn2)c2ccccc21)Nc1ccc2c(c1)CC1(CCNC1=O)C2 (centres undefined)
not satisfied

Follow-up entry: `O=C(Cn1c(=O)n(-c2ccncn2)c2ccccc21)Nc1ccc2c(c1)C[C@]1(C2)C(=O)Nc2ncccc21`
satisfied

Follow-up entry: `O=C(Cn1c(=O)n(C2CCSCC2)c2ccccc21)Nc1ccc2c(c1)C[C@]1(C2)C(=O)Nc2ncccc21`
satisfied

Follow-up entry: O=C(Cn1c(=O)n(-c2ccccn2)c2ccccc21)Nc1ccc2c(c1)CC1(C2)C(=O)Nc2ccccc21 (centres undefined)
not satisfied

Follow-up entry: O=C(Cn1c(=O)n(-c2ccccn2)c2ccccc21)Nc1ccc2c(c1)CC1(CCCNC1=O)C2 (centres undefined)
not satisfied

Follow-up entry: `O=C(Cn1c(=O)n(-c2ccccn2)c2ccccc21)Nc1ccc2c(c1)C[C@@]1(C2)N=C(C2CC2)NC1=O`
not satisfied

Follow-up entry: `O=C(Cn1c(=O)n(-c2ccccn2)c2ccccc21)Nc1ccc2c(c1)C[C@@]1(C2)N=C(c2ccccc2)NC1=O`
satisfied

Follow-up entry: `O=C(N[C@@H]1N=C(c2ccccc2)c2ccccc2N(CC(F)(F)F)C1=O)N1CCC(n2c(=O)[nH]c3ccccc32)CC1`
not satisfied

Follow-up entry: `O=C(N[C@@H]1N=C(c2ccccc2)c2ccccc2N(CC(F)(F)F)C1=O)N1CCC(n2c(=O)[nH]c3ncccc32)CC1`
satisfied

Follow-up entry: O=C(Cn1c(=O)n(C2CCOC2)c2ccccc21)Nc1ccc2c(c1)C[C@]1(C2)C(=O)Nc2ncccc21 (some centres undefined)
satisfied

Follow-up entry: `CN1C(=O)NC(=O)[C@]12Cc1ccc(NC(=O)Cn3c(=O)n(-c4ccncn4)c4ccccc43)cc1C2`
satisfied

Origin of values: ChEMBL document CHEMBL1139248
